Tested on: XF498
assay explanation: NCI tumour cell line growth inhibition, 48 h
Activity calls are given as the source filed them. Cut-off read from the data, not from the text of the source: active = GI50 up to about 1.1 µM and inactive = higher.
For each of the molecules below, state its GI50.

// returns reported GI50 for input `C#CCOCn1cnc2ncnc(Cl)c21`
> 100 µM (inactive)

Hey, quick one: what's GI50 for each of these?
1. CCOC(=O)C(C(=O)OCC)c1ccc([N+](=O)[O-])o1
2. Cc1ccc(/C=C/C(=O)C(C)(C)CN2CCCCC2)cc1
3. CC(C)(C1=NC(C(C)(C)C)CO1)C1=N[C@@H](C(C)(C)C)CO1 (stereo partly specified)
4. Cc1ccc(NC(=O)C(=O)Cc2cc[n+]([O-])cc2)cc1
5. COc1cccc(/C=C2\CCC(CCN(C)C)(C3=CCCC3)C2=O)c1 (stereo unspecified)
6. CCCN(CCCC(NC(C)=O)C(=O)NCc1ccccc1)C(=O)N(C)N=O (stereo unspecified)
7. CCC(=O)C12OC3OC(C)(C)OC3C1OC(C)(C)O2 (stereo unspecified)
8. CCCN(CCCCC(NC(C)=O)C(=O)NCc1ccccc1)C(=O)N(CCCl)N=O (stereo unspecified)

["17.1 µM (inactive)", "11.7 µM (inactive)", "> 100 µM (inactive)", "> 100 µM (inactive)", "17.7 µM (inactive)", "> 100 µM (inactive)", "> 100 µM (inactive)", "> 100 µM (inactive)"]

I would be grateful if you could provide GI50 for each of the following entries.
1. O=C1Cc2ccccc2N1c1c(Cl)cccc1Cl
2. COc1ccc(C2C(Cl)C(=O)N2n2cnc3ccccc3c2=O)cc1OC (stereo unspecified)

1. 21.6 µM (inactive)
2. > 100 µM (inactive)
